Molecular target: T1, UNK ZnF1-6 (called full-length) (human, UniProt Q9C0B0 30-357)
T1 sequence: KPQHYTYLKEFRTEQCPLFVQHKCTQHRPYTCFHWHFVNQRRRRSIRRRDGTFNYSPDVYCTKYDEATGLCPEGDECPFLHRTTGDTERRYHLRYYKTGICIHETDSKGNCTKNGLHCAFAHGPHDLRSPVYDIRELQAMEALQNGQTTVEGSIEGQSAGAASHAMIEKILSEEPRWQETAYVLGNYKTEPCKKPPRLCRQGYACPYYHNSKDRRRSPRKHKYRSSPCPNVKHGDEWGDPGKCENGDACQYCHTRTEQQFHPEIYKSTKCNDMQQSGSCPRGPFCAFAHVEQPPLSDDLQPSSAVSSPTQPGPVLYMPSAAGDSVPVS
Experiment: nsRBNS (natural sequence RNA bind-n-seq); RBNS binding buffer (assumed for nsRBNS): 25 mM Tris pH 7.5, 150 mM KCl, 3 mM MgCl2, 0.01% Triton X-100, 500 ug/ml BSA, 20 U/ml SUPERase-In, 4 C; UNK is unkempt and MSI1 is Musashi-1; names of the RNAs are library labels; protein concentration not given here; high values mean tight binding
The full ranking holds about 5,800 sequences; the median of “enrichment r” is about 0.68, and the highest 2% start at about 11. The list comes from a sample in which the highest values are over-represented; it also holds close analogues and randomly drawn sequences.
Would you kindly list binding signal for each of these binders?
Give your result in enrichment R as a bare value.

Req: Fill in: binding signal of chr10:87814449:87814585:-|CDS|ENSG00000138138|unk|FALSE|bound_elsewhere (ssRNA) RNA: GGGAGUUCUACAGUCCGACGAUCUUUAAUUUUCCGUUUGACAAUAUUUGGUGCAGUGACAUACUUUACUAUCAAAUGGAUGGUAGAUGCAAUUGAUCCAACCAGAAAGCAAAAAGUAGAAGCUCAGAAACAGGUAUGAUUGAACAACAGAGGAUUGAGCAUCA is ___
Resp: 0.395

Req: Quick check: binding signal of chr10:73916565:73916770:+|3pUTR|ENSG00000122861|msi1|total|mutant (ssRNA) RNA: GGGAGUUCUACAGUCCGACGAUCCUGGUUGUCAUUUUUGCAGCCGAGUCAUCUCCAUCAGCUGUAAGAAGAGACUGGGAAGACCGGCUCUGCACAGAUGGAUUUGCCUGUGCCACCCACCAGGGCGAACGACAACCGCUUUACCAACAGAGGAUUGAGCAUCA ?
Resp: 0.561
